assay: Antiproliferative activity against human CRL2813 cells assessed as inhibition of cell proliferation after 5 days by sulforhodamine B assay; assay type: functional, cell-based; details: CRL2813, 120 h
Recorded pIC50, one value per entry.
pIC50 is defined as minus the log10 of a concentration measured in mol/L.

Example results:
[
  {
    "compound": "O=C(O)/C(Cc1ccccc1[N+](=O)[O-])=N\\Nc1nc(-c2ccc(Cl)c(Cl)c2)cs1",
    "pIC50": 4.82
  },
  {
    "compound": "O=C(O)/C(Cc1ccccc1[N+](=O)[O-])=N\\Nc1nc2c(s1)COc1c-2ccc(Cl)c1Cl",
    "pIC50": 4.91
  }
]

Below: the item to evaluate.
I would be grateful if you could share the reported pIC50 for O=C(O)/C(Cc1ccccc1[N+](=O)[O-])=N/Nc1nc2c(s1)C[S+]([O-])c1cc(Cl)c(Cl)cc1-2 (stereo not given) .
5.12
